- Tested on: HL60 cells
- Assay text: HL60 cell killing experiment (CellTiter-Glo cell viability)
- Assay type: cell-based
- Experimental parameters: Homo sapiens, HL-60, 48 h incubation, CTG luminescence
Recorded GI50, one value per entry.

Need GI50, item O=C1CCC(N2C(=O)c3cccc(NCCCCC(=O)NC4CCC(c5nc6c(cnc7[nH]ccc76)[nH]5)CC4)c3C2=O)C(=O)N1 (stereo not drawn)
< 100 nM

---

- Test system: HL60 cells
- Assay text: HL60 cell killing experiment (CellTiter-Glo cell viability)
- Format: cell-based
- Experimental parameters: Homo sapiens, HL-60, 48 h incubation, CTG luminescence
Recorded GI50, one value per entry.

Previously resolved entries follow.
{"columns": ["Molecule", "Assay system", "GI50"],
 "data": [
  ["COc1ccc(CNc2cccc3c2C(=O)N(C2CCC(=O)NC2=O)C3=O)cc1C(=O)N[C@H]1CC[C@H](c2nc3ccncc3n2C)CC1 (stereo partly drawn) [Example 89]", "HL60 cells", "< 100 nM"],
  ["Cn1c2cccnc2nc1[C@H]1CC[C@H](NC(=O)c2cc(CNc3cccc4c3C(=O)N(C3CCC(=O)NC3=O)C4=O)ccn2)CC1 (stereo partly drawn) [Example 42]", "HL60 cells", "< 100 nM"],
  ["O=C1CCC(N2C(=O)c3cccc(NCc4ccc(C(=O)NC5CCC(c6nc7c(cnc8[nH]cc(C9CCOCC9)c87)[nH]6)CC5)cc4)c3C2=O)C(=O)N1 (stereo not drawn) [Example 116]", "HL60 cells", "< 100 nM"],
  ["O=C1CCC(N2C(=O)c3cccc(NCc4ccnc(NC[C@H]5CC[C@H](c6nc7cccnc7s6)CC5)c4)c3C2=O)C(=O)N1 (stereo partly drawn) [Example 28]", "HL60 cells", "< 100 nM"],
  ["COC1CCCC(NC(=O)c2cccc(CNc3cccc4c3C(=O)N(C3CCC(=O)NC3=O)C4=O)c2)C1 (stereo not drawn) [Example 2]", "HL60 cells", "< 100 nM"],
  ["O=C1CCC(N2C(=O)c3cccc(NCc4cccc(C(=O)NC5CCC(c6nc7ccccc7o6)CC5)c4)c3C2=O)C(=O)N1 (stereo not drawn) [Example 16]", "HL60 cells", "< 100 nM"]
]}

Need GI50, item O=C1CCC(N2C(=O)c3cccc(NCc4cccc(C(=O)NC5CCC(c6nc7cccnc7[nH]6)CC5)c4)c3C2=O)C(=O)N1 (stereo not drawn) [Example 18]
< 100 nM

Please do the same for COc1cnc2sc([C@H]3CC[C@H](C(=O)Nc4cccc(CNc5cccc6c5C(=O)N(C5CCC(=O)NC5=O)C6=O)c4)CC3)nc2c1 (stereo partly drawn) [Example 98] as well.
< 100 nM

Please do the same for O=C1CCC(N2C(=O)c3cccc(NCc4ccnc(C(=O)NC5CCC(c6nc7ccccc7o6)CC5)c4)c3C2=O)C(=O)N1 (stereo not drawn) [Example 22] as well.
< 100 nM

---

Entries with reported GI50 on Raji cells
API: value field is a number in nM; no unit string.

Previously resolved entries follow.
{"columns": ["Compound", "Result number"],
 "data": [
  ["COc1ccc2c(c1)nc([C@H]1CC[C@H](COc3cc(CNc4cccc5c4C(=O)N(C4CCC(=O)NC4=O)C5=O)ccn3)CC1)n2C (stereo partly shown) [Example 75]", 1.79],
  ["COc1ccc2c(c1)nc([C@H]1CC[C@H](NC(=O)c3cc(CNc4cccc5c4C(=O)N(C4CCC(=O)NC4=O)C5=O)ccn3)CC1)n2C (stereo partly shown) [Example 90]", 5.88],
  ["O=C1CCC(N2C(=O)c3cccc(NCc4cccc(C(=O)NC5CCC(c6nc7ccccc7o6)CC5)c4)c3C2=O)C(=O)N1 (stereo not shown) [Example 16]", 362]
]}

# ---- query compound ----
Need GI50, item COc1ccc2nc([C@H]3CC[C@H](C(=O)Nc4cccc(CNc5cccc6c5C(=O)N(C5CCC(=O)NC5=O)C6=O)c4)CC3)sc2n1 (stereo partly shown) [Example 97]
3.43
